Target: TP receptor (Homo sapiens, UniProt P21731)
Construct: expressed in transfected cells; host or cells: CHO-K1
Sequence (P21731 1-343): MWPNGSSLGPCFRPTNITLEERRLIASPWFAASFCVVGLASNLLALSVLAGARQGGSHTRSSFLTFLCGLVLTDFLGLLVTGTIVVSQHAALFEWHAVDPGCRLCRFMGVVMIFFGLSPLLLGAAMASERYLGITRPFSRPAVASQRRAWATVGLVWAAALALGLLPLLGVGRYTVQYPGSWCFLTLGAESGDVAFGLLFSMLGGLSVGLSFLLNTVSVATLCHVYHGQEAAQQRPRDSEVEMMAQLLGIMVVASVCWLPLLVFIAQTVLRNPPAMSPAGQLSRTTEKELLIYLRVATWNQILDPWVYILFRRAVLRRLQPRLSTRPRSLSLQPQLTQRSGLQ
Test: human TP calcium mobilisation assay (CHO-K1 cells, U46619, FLIPR)
Format: cell-based
Details: free bases or sodium salts; read-out: functional pKi, human TP calcium mobilisation assay (converted)
Where a name gives a salt, the structure may show the parent alone.
// reported Ki for each item listed
Assay Endpoint: Ki

1. O=C(O)c1cccc(Cc2cc(Cl)ccc2OCc2cc(F)c(F)cc2F)n1    < 1000 nM
2. Cc1ccc(C(=O)O)nc1Cc1cc(Cl)ccc1OCc1ccc(Cl)cc1F [Example 39, sodium salt]    ≤ 31.6 nM
3. O=C(O)c1cccc(Cc2cc(Cl)ccc2OCc2ccc(F)c(F)c2F)n1    < 1000 nM
4. Fc1cc(Cl)ccc1COc1ccc(Cl)cc1Cc1cccc(-c2nnn[nH]2)n1    ≤ 31.6 nM
5. O=C(O)c1cccc(Cc2cc(Cl)ccc2OCC2CCCC2)n1    < 1000 nM
6. O=C(O)c1cccc(Cc2cc(Cl)ccc2OCc2c(F)cc(F)cc2F)n1    < 1000 nM
7. O=C(O)c1cccc(Cc2cc(Cl)ccc2OCc2ccc(F)cc2Cl)n1    < 1000 nM
8. CC(C)COc1ccc(Cl)cc1Cc1cccc(C(=O)O)n1    > 1000 nM
9. O=C(O)c1cccc(Cc2cc(Cl)ccc2OCc2ccc(Cl)cc2F)n1    ≤ 31.6 nM
10. O=C(O)c1cccc(Cc2cc(Cl)ccc2OCc2ccccc2F)n1    < 1000 nM
11. CCCS(=O)(=O)NC(=O)c1cccc(Cc2cc(Cl)ccc2OCc2ccc(Cl)cc2F)n1    < 1000 nM
12. O=C(O)c1cccc(Cc2cc(Cl)ccc2OCc2ccc(Cl)cc2)n1    < 1000 nM
13. O=C(O)c1cccc(Cc2cc(Cl)ccc2OCc2ccc(F)cc2F)n1    < 1000 nM
14. O=C(O)c1cccc(Cc2cc(Cl)ccc2OCc2ccccc2)n1    > 1000 nM
15. O=C(NS(=O)(=O)c1ccc(Br)cc1)c1cccc(Cc2cc(Cl)ccc2OCc2ccc(Cl)cc2F)n1    > 1000 nM
16. O=C(O)c1cccc(Cc2cc(Cl)ccc2OCc2ccc(Cl)cc2Cl)n1    ≤ 31.6 nM
17. O=C(O)c1cccc(Cc2cc(Cl)ccc2OCc2ccc(F)cc2)n1    < 1000 nM
18. O=C(NS(=O)(=O)c1ccccc1)c1cccc(Cc2cc(Cl)ccc2OCc2ccc(Cl)cc2F)n1    < 1000 nM

---

Molecular target: EP1 receptors (Homo sapiens)
Sequence (P34995 1-402): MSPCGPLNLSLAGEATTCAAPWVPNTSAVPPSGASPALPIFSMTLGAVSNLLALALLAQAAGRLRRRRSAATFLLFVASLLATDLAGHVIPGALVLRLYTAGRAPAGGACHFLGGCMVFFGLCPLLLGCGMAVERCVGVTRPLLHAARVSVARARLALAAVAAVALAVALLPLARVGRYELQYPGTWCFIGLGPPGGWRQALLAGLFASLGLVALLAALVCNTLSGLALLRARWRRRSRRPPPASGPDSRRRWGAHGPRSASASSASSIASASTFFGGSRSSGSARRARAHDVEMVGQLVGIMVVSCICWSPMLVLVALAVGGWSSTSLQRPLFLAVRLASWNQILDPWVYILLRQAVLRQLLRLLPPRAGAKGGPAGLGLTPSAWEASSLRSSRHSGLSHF
Test: human EP1 calcium mobilisation assay (CHO-K1 cells, PGE2, FLIPR)
Type: cell-based
Parameters: expressed in transfected cells; host or cells: CHO-K1
Settings: free bases or sodium salts; averages of a number of experiments; read-out: functional pKi value, human EP1 calcium mobilisation assay (converted)
Structures can show the parent of a compound that is named as a salt.
// reported Ki for each item listed
Assay Endpoint: Ki

1. O=C(O)c1cccc(Cc2cc(Cl)ccc2OCC2CC2)n1    < 1000 nM
2. CCCS(=O)(=O)NC(=O)c1cccc(Cc2cc(Cl)ccc2OCc2ccc(Cl)cc2F)n1    ≤ 31.6 nM
3. CC(C)Oc1ccc(Cl)cc1Cc1cccc(C(=O)O)n1    < 1000 nM
4. CC(C)(C)Oc1ccc(Cl)cc1Cc1cccc(C(=O)O)n1    > 1000 nM
5. C=C(C)COc1ccc(Cl)cc1Cc1cccc(C(=O)O)n1    ≤ 31.6 nM
6. CC(=O)Nc1ccc(S(=O)(=O)NC(=O)c2cccc(Cc3cc(Cl)ccc3OCc3ccc(Cl)cc3F)n2)cc1    < 1000 nM
7. O=C(O)c1cccc(Cc2cc(Cl)ccc2OCc2ccccc2Cl)n1    ≤ 31.6 nM
8. O=C(NS(=O)(=O)c1ccccc1)c1cccc(Cc2cc(Cl)ccc2OCc2ccc(Cl)cc2F)n1    ≤ 31.6 nM
9. O=C(O)c1cccc(Cc2cc(Cl)ccc2OCc2ccc(F)cc2)n1    < 1000 nM
10. O=C(O)c1cccc(Cc2cc(Cl)ccc2OCc2c(F)cc(F)cc2F)n1    < 1000 nM
11. O=C(O)c1cccc(Cc2cc(Cl)ccc2OCc2cc(F)c(F)cc2F)n1    < 1000 nM
12. O=C(O)c1cccc(Cc2cc(Cl)ccc2OCc2ccc(F)cc2F)n1    ≤ 31.6 nM
13. O=C(NS(=O)(=O)c1cc(Cl)cc(Cl)c1)c1cccc(Cc2cc(Cl)ccc2OCc2ccc(Cl)cc2F)n1    > 1000 nM
14. O=C(O)c1cccc(Cc2cc(Cl)ccc2OCc2ccc(F)c(F)c2F)n1    < 1000 nM
15. Fc1cc(Cl)ccc1COc1ccc(Cl)cc1Cc1cccc(-c2nnn[nH]2)n1    ≤ 31.6 nM
16. O=C(O)c1cccc(Cc2cc(Cl)ccc2OCc2ccc(F)cc2Cl)n1    < 1000 nM
17. O=C(O)c1cccc(Cc2cc(Cl)ccc2OC2CCCC2)n1    < 1000 nM
18. O=C(O)c1cccc(Cc2cc(Cl)ccc2OCC2CCCC2)n1    < 1000 nM
19. O=C(O)c1cccc(Cc2cc(Cl)ccc2OCc2ccccc2F)n1    < 1000 nM
20. Cc1ccc(Cc2cc(Cl)ccc2OCc2ccc(Cl)cc2F)nc1C(=O)O [Example 40, sodium salt]    > 1000 nM

---

// reported Ki for each item listed
Molecular target: EP1 receptors (Homo sapiens, UniProt P34995)
Experiment: human EP1 calcium mobilisation assay (CHO-K1 cells, PGE2, FLIPR)
Format: cell-based
Set-up: expressed in transfected cells; host or cells: CHO-K1
Details: free bases or sodium salts; averages of a number of experiments; read-out: functional pKi value, human EP1 calcium mobilisation assay (converted)
Method: Briefly, the antagonist properties of compounds are assessed by their ability to inhibit the mobilisation of intracellular calcium ([Ca^2+]i) in response to activation of EP1 or EP3 receptors by the natural agonist hormone prostaglandin E2 (PGE2). […] The amount of calcium produced is assessed using a calcium-sensitive fluorescent dye such as Fluo-4, AM and a suitable instrument such as a Fluorimetric Imaging Plate Reader (FLIPR). […]
Assay Endpoint: Ki

1. O=C(NS(=O)(=O)c1cccc(Br)c1)c1cccc(Cc2cc(Cl)ccc2OCc2ccc(Cl)cc2F)n1    ≤ 0.0316 µM
2. O=C(NS(=O)(=O)c1ccc(Br)cc1)c1cccc(Cc2cc(Cl)ccc2OCc2ccc(Cl)cc2F)n1    < 1 µM
3. O=C(O)c1cccc(Cc2cc(Cl)ccc2OCc2ccc(Cl)cc2Cl)n1    ≤ 0.0316 µM
4. CC(C)COc1ccc(Cl)cc1Cc1cccc(C(=O)O)n1    < 1 µM
5. CCC(CC)COc1ccc(Cl)cc1Cc1cccc(C(=O)O)n1    < 1 µM
